experiment: label from the status in PepcDB records

INPUT_SEQUENCE | protein production
MYLKELSMMPGVSGDEGKVRDFIKSKIEGLVDNLYTDVLGNLIALKRGRDSSKKLLVSAHMDEVGFVVSKIEKDGKVSFLPVGGVDPRILPGKVVQVKNLKGVIGYRPIHLQRDEENTPPRFENLRIDFGFSSADEAKKYVSIGDYVSFVSDYIEKNGRAVGKAFDDRAGCSVLIDVLESGVSPAYDTYFVFTVQEETGLRGSAVVVEQLKPTCAIVVETTTAGDNPELEERKWATHLGDGPAITFYHRGYVIPKEIFQTIVDTAKNNDIPFQMKRRTAGGTDAGRYARTAYGVPAGVISTPARYIHSPNSIIDLNDYENTKKLIKVLVEEGKIVEVVS | not failed
MTFRGPSPPRFGHSMDLPAYAIEAEGLYKTYAGTKTSPEKRALNGIDLKIPRGSIFGLLGPNGAGKSTFINILAGLVRKSSGTVRIWGRDIDQRPRDARAAIGVVPQELAADVFFTPRESLEVQAGFYGVPKSERRTDELLNALGLGDKAGAYVRQLSGGMKRRLMVAKAMVHQPPVLILDEPTAGVDVELRRQLWQYVTSLNELGVTIVLTTHYLEEAQELCDEIAIINRGEVVACEPTAKLLSRMDSRNVVVTPESPVTAAPVLEGFDTKLRSGGAFSVSYRTGQSSVEQVLAAVRASGLHIKDIATEDPDLEDVFVALTYGDPNAADPTKDLEHHHHHH | failed
MTITNSKAEAWELIGNQFWTIGRVAARPSDRENDIFLENIVPGSTVAVIGASTRFLIEKALERGASVTVFDFSQRMCDDLAEALADRCVTIDLLDITAEIPKELAGHFDFVLNDRLINRFTTEEARRACLGMLSLVGSGTVRASVKLGFYDIDLKLIEYGEQSGTLAKFFDPSDKTFHFREAGDVLDRALVPHGLIDKPTLLEWYRRRGKETRFDDEDVRAL | failed
MTDATAEQSVTADADDKPEPYNGLPGAFPYAFRATDSLLFKAYVPVALLLSVAITLVFSFGLITQLAETGSVRGGTFTFSRSFFLFVGLLLVAPLLAPVLSVARRHRRTASSVAYDRALALSAFLFIGSIYLALLTSAPAELREPTQSAVVGFFYSLPPIAGVVPPMLATLGIYLTHRLLK | failed
MPYVPTPKPVVDRMLELADVDETDVLYDLGSGDGRIVIRAARTHGARGVGIEIDPDLVKKARKNAKEAGVADLVEFRQGDLFEADISEATVVTLYLLPSVNQKLRPILFEQLSPGTPVVSHDFDMGRWAPDRTVDLEGDTVYRWTIPEEIPEDLDELEHHHHHH | not failed
MNRLKKWIRYVPDRIDDGLRYLCGRMSPDVRLVCVVVMLTGFGCLSIYMTVSSIYRIGRHEGEQLQMDHIRRMELYRGINKDSINIKNQVDYGEPKKSGTATGERCNA | failed
MELISIIVPVYNGEIYIGRCLDSILEQTYQNLEIIIIDDGSSDRTGDICEKYFLEDRRIKYFYQENRGQSVARNNGVLRCTGDWIAFLDSDDVYLPYSIEVMYNIQKATNADIVLTSIGNFNNTYNTSINSQYLKEIKLYTLEVALEEMYYGKTYGVSPLAKLYPRSNLLSNPYPEGKIHEDMDTTFKLISCASKIAVCDIVTAVVYFSDNSTTRTKFNERMLYFFEAIQNNIVFINLNFPHNTSLISAVIYNEVFGGIDICGKMIDFKLYDTVDYYRKKYRKYFKTILFNNRISVKEKVKYILFISSIRYFTIVRKIYNLRLSRNGLEHHHHHH | failed
MEQTTIDGIALTLAGPVQLPLKWVGQDELLQQLLAAWMVIDDRDIPFSPRLIGKPGVGKTTLAYAAARRLGRPVYLFQATMDTRPEDLIITPVIGPDGKIQYAASSLVSAMVKGGVLILDEGNRMSEKAWASLAPLLDDRRYVESIITGLRVPAHRDFRIVVTMNEDASTFEVPEYIHSRLQPQIFIDFPEADEELMILKENLPFAPTRILKYVVDFLQRAHAADELYSVRDGINIARYALKMMAATERDAAELLPLAVERVLGDEALRYLALEHHHHHH | failed
MSLNDNNTILGFDVNLICDFFLNTERQGPGSPEVTLKALSFIDNLTNKSLIADLGCGTGGQTMILAQHVPGKITGIDFFPGFIERFNKNAEKLNLQNRVKGIVGSMDDLSFEKDSLDLIWSEGAIYNIGFERGLKEWRNYLKPGGYLAVSESVWFTDQRPAEIHDFWMSAYTEIDTVPNKVAQIQKAGYIPVATFILPENCWIEHYFAPQAKAEEIFRRKHAGSRIVEELITSNHHEAELYSKYKAYYGYAFFICKKGFSLREGHHHHHH | not failed
MTEKSQEPTAALDAEQVAAYLSQHPEFFVEHDELIPELRIPHQPGDAVSLVERQVRLLRERNIEMRHRLSQLMDVARENDRLFDKTRRLVLDLLDATSLEDVVSTVEDSLRHEFQVPYVSLILFSDSSVSVGRSVSSAEAHQAIGGLLSGGKTVCGVLRPHELAFLFGESDRDEIGSAAVVSLSFQGLHGVLAIGSPDPQHYKSSLGTLFLGYVAEVLARVLPRFSSPLRSVR | not failed
EAERVSVEHTSANPTGPLHIGRARNSIIGDSIYRILSRYGYRTVRQYFVNDSGKQMISLYTAYIKYGGPITIENLLENYQKIYREMEKDQSIEKEIEKNIERYENADPEVFGTLRKIAGVMLDGIASTLKRIGIEFDEFDWESDLLLNGSVRKAIDMLETKEEDSARYIEISGKKVFLTRKDGTTLYFARDIAYHLFKAENSEWIIDVLGEDHKDHAKSLNHVLKEMLKLENRVSFMYYSFITLETGKMSTRRGNIVTLQDLVDRTYDEALKIVNEKRPDLSEEERKKIAEVIASSAVRYSIIRVSAPKPITFRWEEALNFESNSAPFIMYS | failed

Data origin, for the record: a protein production outcome set (Wang et al. 2014)
